Assay: Plasma pharmacokinetics after a single dose of liquid or solid oat product (compartmental PK model)
Format: in vivo, humans
Settings: liquid, single dose, absorption rate (Table 2)
metric: ka

What the record says about O=C(/C=C/c1ccc(O)c(O)c1)Nc1ccc(O)cc1C(=O)O [AVA 2c] : ka is 6.0 ± 0.3^1 1/h

// COc1cc(/C=C/C(=O)Nc2ccc(O)cc2C(=O)O)ccc1O [AVA 2f] : ka value = 5.0 ± 0.3^2 1/h

The molecule listed as O=C(/C=C/C=C/c1ccc(O)cc1)Nc1ccc(O)cc1C(=O)O [AVA 2pd] shows ka equal to 2.40 ± 0.1^1 1/h

Recorded ka (molecule CC1OC(OC2C(OC3CCC4(C)C(=CCC5C4CCC4(C)C5CC5OC6(CCC(C)(COC7OC(CO)C(O)C(O)C7O)O6)C(C)C54)C3)OC(CO)C(OC3OC(CO)C(O)C(OC4OC(CO)C(O)C(O)C4O)C3O)C2O)C(O)C(O)C1O (stereo not shown) [AVE B, Avenacoside B] ): 0.41 ± 0.02 h⁻¹

The value of ka measured for the molecule O=C(/C=C/c1ccc(O)cc1)Nc1ccc(O)cc1C(=O)O [AVA 2p] turned out to be 2.8 ± 0.2^1 1/h

Per the records, this molecule ( COc1cc(/C=C/C=C/C(=O)Nc2ccc(O)cc2C(=O)O)ccc1O [AVA 2fd] ) has ka equal to 3.6 ± 0.2^1 1/h

The value of ka measured for the molecule CC1OC(OC2C(OC3CCC4(C)C(=CCC5C4CCC4(C)C5CC5OC6(CCC(C)(COC7OC(CO)C(O)C(O)C7O)O6)C(C)C54)C3)OC(CO)C(OC3OC(CO)C(O)C(O)C3O)C2O)C(O)C(O)C1O (stereo not shown) [AVE A, Avenacoside A] turned out to be 1.4 ± 0.1^1 1/h
